Source of measurements: patent US20190071490A1

Give measured Kd for each item. Keep answers brief.
target.or.system: T1, human α-CGRP 1-37 (WT) (human, C-terminal amide; N-terminal biotin when captured on the SA chip; 125I-labelled in the radioligand assay)
T1 construct: also called α-human
T1 peptide: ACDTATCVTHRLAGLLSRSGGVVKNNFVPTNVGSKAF
experimental.protocol: Biacore, 37°C, Fab over CGRP on SA chip
API: value field is a number in nM; no unit string.

Please fill in: Kd reported for G1 variant M82 Fab (Fab, V domains shown, Fab; constant domains as m1) VH: EVQLVESGGGLVQPGGSLRLSCAASGFTFSNYWISWVRQAPGKGLEWVAEIRSESDNSATHYAEAVKGRFTISRDNAKNSLYLQMNSLRAEDTAVYYCTVYFDYGLAIQNYWGQGTLVTVSS VL: EIVLTQSPATLSLSPGERATLSCKASKNVVTYVSWYQQKPGQAPRLLIYGHSNRYTGIPARFSGSGSGTDFTLTISSLEPEDFAVYYCSQSYNYPYTFGQGTKLEIK = 5.48

Please fill in: Kd reported for G1 variant M17 Fab (Fab, V domains shown, Fab; constant domains as m1) VH: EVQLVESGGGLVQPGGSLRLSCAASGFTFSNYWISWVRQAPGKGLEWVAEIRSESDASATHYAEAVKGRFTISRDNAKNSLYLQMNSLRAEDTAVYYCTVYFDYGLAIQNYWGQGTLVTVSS VL: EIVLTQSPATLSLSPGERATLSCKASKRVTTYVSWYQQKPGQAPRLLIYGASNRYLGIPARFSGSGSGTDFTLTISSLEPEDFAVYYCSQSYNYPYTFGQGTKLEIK = 1.16
